Data credit: patent US20230381333A1

Molecular target: human GLP-1 receptor (human, UniProt P43220 24-463)
Assay: cell-based or functional assay
Bridge positions count the residues as written; N and C are the ends. Square brackets hold non-standard residues; d marks the D form. Ends that are not written are not given here. * marks the point of attachment. Acetyl(2-(4-imidazolyl)) = O=C(Cc1c[nH]cn1)*; Aib = CC(C)(N)C(=O)O
Kindly supply the reported In vitro activity compared to native-type peptide (%), vs GLP-1 values for the records listed here.
Write down the value, and be sure its unit follows.

| binder | value-measured |
| --- | --- |
| HGQGTFTSDCSKYLDEQHAQEFVAWLLAGGPSSGAPPPS [triple agonist of SEQ ID NO: 46] | 1.4% |
| [Acetyl(2-(4-imidazolyl))]GEGTFISDLSKYMDEQAVQLFVEWLMAGGPSSGAPPPSHG [triple agonist of SEQ ID NO: 12] | 0.4% |
| H[Aib]QGTFTSDYSKYLDEKACKEFVQWLLAQ (bridge 16-20) [triple agonist of SEQ ID NO: 31] | 135% |
| Y[Aib]QGTFTSDYSKCLDEKAAKEFVQWLLDHHPSSGQPPPS (bridge 16-20) [triple agonist of SEQ ID NO: 68] | 27.9% |

Batch of 2 binders: report In vitro activity compared to native-type peptide (%), vs GLP-1 for each.
1. H[Aib]QGTFTSDVSKYLDGQAAQEFVAWLLAGC [triple agonist of SEQ ID NO: 9]
2. {Acetyl(2-(4-imidazolyl))}-[Aib]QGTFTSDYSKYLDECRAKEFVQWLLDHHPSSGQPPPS (bridge 15-19) [triple agonist of SEQ ID NO: 73]

Response line:
32.1%
22.6%

Batch of 3 binders: report In vitro activity compared to native-type peptide (%), vs GLP-1 for each.
1. {Acetyl(2-(4-imidazolyl))}-[Aib]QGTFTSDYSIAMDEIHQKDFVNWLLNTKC (bridge 15-19) [triple agonist of SEQ ID NO: 94]
2. HGQGTFTSDCSKYLDGQRAQEFVAWLLAGGPSSGAPPPS [triple agonist of SEQ ID NO: 47]
3. Y[Aib]QGTFTSDYSKCLDEKRAKDFVQWLLDHHPSSGQPPPS (bridge 16-20) [triple agonist of SEQ ID NO: 70]

Response line:
["0.5%", "2.4%", "15.1%"]
